Tested on: CINC-1/GROa protein levels of human blood micro vascular endothelial cells
Experiment: CINC-1/GROa protein levels in supernatants of LPS-stimulated HMVEC (ELISA)
Format: cell-based
Settings: HMVEC, LPS 20 μg/ml 6 hours, 16 mmol/l in culture medium, positive control=100%
Procedure: Table 1 CINC-1/GROa protein levels of human blood micro vascular endothelial cells measured in supernatants in relation to an exposition to LPS without any substance (positive control=100%) METHODS: Different molecules with CF3-group were tested against their corresponding non-fluorinated molecules. […] Expression of rat-MCP-1 (BD Biosciences, San Diego, Calif.) and human CINC-1 GROa (R&D Systems Europe Ltd.) protein were analyzed by ELISA. […]
metric_name: CINC-1/GROa protein level in relation to LPS without any substance, Median (%)

# compound, target_or_test_system, result
records = [
    ("OCC(F)(F)F", "CINC-1/GROa protein levels of human blood micro vascular endothelial cells", 98),
    ("CCCO [1-Propanol, reference compound]", "CINC-1/GROa protein levels of human blood micro vascular endothelial cells", 82),
    ("NC(CC(=O)O)C(F)(F)F (stereo not shown)", "CINC-1/GROa protein levels of human blood micro vascular endothelial cells", 0),
    ("OCC(F)(F)C(F)(F)F", "CINC-1/GROa protein levels of human blood micro vascular endothelial cells", 115),
    ("CC(C)O [2-Propanol, reference compound]", "CINC-1/GROa protein levels of human blood micro vascular endothelial cells", 97),
    ("OC(C(F)(F)F)C(F)(F)F", "CINC-1/GROa protein levels of human blood micro vascular endothelial cells", 26),
    ("CCO [Ethanol, reference compound]", "CINC-1/GROa protein levels of human blood micro vascular endothelial cells", 107),
]
